- assay_protocol: basal 3T3-L1 adipocyte mitochondrial potential changes, profiling panel, cell-based, JC-1 fluorescence, 3T3-L1 adipocytes, 24 h, 100 nL compound (AID 1168); further: test concentration not given here
- recorded_conditions: JC-1 mitochondrial fluorescence, higher = more signal, called active from +8 up or from −8 down
Entries get a class label from measured z-score. See ranges: low bracket (below 0.04), middle bracket (0.04 to below 1), high bracket (1 or more)

compound | class_label
CC(C)CNC(=O)[C@@H]1c2ccccc2C(=O)N(C(C)C)[C@H]1c1ccc(CO)cc1 | high bracket
COC(=O)[C@@]1(Cc2ccc(F)cc2)[C@H]2c3cc(C(=O)N4CCCC4)n(CCO)c3C[C@H]2CN1C(=O)c1ccccc1 | middle bracket
O=C1C2C=CC(C(O)c3cccs3)N(Nc3ccccc3)C2C(=O)N1c1ccccc1 (stereo not given) | middle bracket
C=CC[C@]1(C(=O)OC)N=C(c2ccc(OCCCO)cc2)O[C@H]1c1ccccc1N=[N+]=[N-] | middle bracket
COCCOC(=O)N1C(=O)[C@@]2(c3cc(C#CCCO)ccc31)[C@H](C(=O)N1CCc3cc(OC)c(OC)cc3C1)[C@H]1C(=O)O[C@H](c3ccccc3)[C@H](c3ccccc3)N1[C@@H]2c1ccccc1OCCO | high bracket
O=C(NCC(F)(F)F)[C@@H]1c2ccccc2C(=O)N(CC23CC4CC(CC(C4)C2)C3)[C@H]1c1ccc(CO)cc1 | low bracket
COc1ccccc1CN1C(=O)c2ccccc2[C@](Cc2ccccc2I)(C(=O)NCCCN(C)C)[C@@H]1c1ccc(CO)cc1 | high bracket
C=CCC(OC(C)=O)[C@@H]1[C@@H](N(Cc2ccc(-c3cccc(C(F)(F)F)c3)o2)C(=O)Cc2ccc(F)cc2)c2cc(OCCCO)ccc2N1C(=O)c1ccc2ccccc2n1 (stereo not given in full) | middle bracket
CC(C)C(=C=CC[C@@H](O)c1cccc(OCCO)c1)CCO | middle bracket
NC(=O)NCC#Cc1ccc2c(c1)[C@]1(C(=O)N2)[C@H](C(=O)N2CCCCCCC2)[C@H]2C(=O)O[C@H](c3ccccc3)[C@H](c3ccccc3)N2[C@@H]1c1ccc(O)cc1 | low bracket
CCOC(=O)C[C@H]1[C@H](OC(=O)c2ccc(-c3ccccc3)cc2)[C@@H](NC(=O)c2ccc3ccccc3c2)c2cc(OCCCO)ccc2N1C(=O)c1ccccc1 | low bracket
COCCOC(=O)N1C(=O)[C@@]2(c3ccccc31)[C@H](C(=O)N1CCCCCCC1)[C@H]1C(=O)O[C@H](c3ccccc3)[C@H](c3ccccc3)N1[C@@H]2c1ccc(O)cc1 | high bracket
C=CC[C@@]1(C(=O)N(C)C)N=C(c2ccc(OCCCO)cc2)O[C@@H]1c1ccccc1 | low bracket

###

- tested_target: Albumin (Bos taurus)
- assay_protocol: bovine serum albumin binders on microarray, profiling panel, artefact control for SMM control protein annotation, biochemical, small-molecule microarray, Alexa647 label, 635/667 nm fluorescence (AID 1118);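 further: score merges 667 nm emission intensity and signal-to-noise per printed compound spot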
- recorded_conditions: BSA-A647 binding, fluorescence 635 nm, higher = more signal
Catalogue of molecules with associated composite z-score

smiles_str | tested_target | composite z-score
CO[C@H]1O[C@H](CO)[C@@H](OC(=O)Nc2ccccc2)[C@@H]2OC(=O)[C@H](Cc3ccccc3)C/C=C/C[C@@H](Cc3ccccc3)C(=O)O[C@@H]12 | Albumin (Bos taurus) | 0.548
Cc1c(NC(=O)/C(C#N)=C/c2ccc(Cl)cc2)c(=O)n(-c2ccccc2)n1C | Albumin (Bos taurus) | 0.87
C=CC[C@]1(C(=O)NCCCOC)N=C(c2ccc(OCCCO)cc2)O[C@H]1c1ccccc1 | Albumin (Bos taurus) | 0.812
COCCCNC(=O)[C@@H]1c2ccccc2C(=O)N(Cc2cc(C(F)(F)F)cc(C(F)(F)F)c2)[C@H]1c1ccc(CO)cc1 | Albumin (Bos taurus) | -0.873

###

// reported composite z-score per item
- Tested on: Sam68 (KHDRBS1)
- assay_protocol: Sam68 small-molecule binders, primary screen, biochemical, small-molecule microarray, 635 nm fluorescence (AID 1125);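 further: score merges 667 nm channel intensity with signal to noise over triplicate slides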
- recorded_conditions: small-molecule microarray binding, higher = more signal

compound | tested_target | composite z-score
O=C1C2C=CC(C(O)C(c3ccccc3)c3ccccc3)N(Nc3ccccc3)C2C(=O)N1c1ccccc1 (centres undefined) | Sam68 (KHDRBS1) | 1.3
C#CCN(C/C=C/c1ccccc1)[C@H](CO[Si](C)(C)C(C)(C)C)c1ccccc1 | Sam68 (KHDRBS1) | 0.102
C=CCC(OC(C)=O)[C@@H]1[C@@H](N(Cc2ccc(-c3cccc(C(F)(F)F)c3)o2)C(=O)Cc2ccc(F)cc2)c2cc(OCCCO)ccc2N1C(=O)c1ccc2ccccc2c1 (some centres undefined) | Sam68 (KHDRBS1) | -0.749
CCOC(=O)C1=CC[C@@H](c2ccccc2)N(S(=O)(=O)C[Si](C)(C)C)[C@H]1c1ccccc1 | Sam68 (KHDRBS1) | 1.34
Cc1ccc(F)cc1S(=O)(=O)N[C@@H]1CCN(Cc2ccc3[nH]ccc3c2)C1 | Sam68 (KHDRBS1) | 0.605
C=CCC(OC(C)=O)[C@@H]1[C@@H](N(Cc2cc3ccccc3o2)C(=O)c2ccc(-c3ccccc3)cc2)c2cc(OCCCO)ccc2N1C(=O)c1ccc2ccccc2n1 (some centres undefined) | Sam68 (KHDRBS1) | -0.626
COCC1=C([C@H](O)CCc2ccccc2)[C@H](CO)n2c(=O)n(-c3ccccc3)c(=O)n2C1 | Sam68 (KHDRBS1) | -0.73
COC(=O)[C@@]1(Cc2ccc(F)cc2)[C@H]2c3cc(C(=O)N(C)C)n(CCO)c3C[C@H]2CN1C(=O)c1ccccc1 | Sam68 (KHDRBS1) | -0.206
C=C(COC)/C(=C/C[C@@H](OC(C)=O)c1ccccc1OCCO)c1cc(C(=O)OC)ccc1OC | Sam68 (KHDRBS1) | 0.844
COC(=O)[C@@]1(Cc2ccccc2)[C@@H]2[C@@H](CC(=O)[C@H]2CC(=O)C(=O)N(C)C)CN1C(=O)c1ccccc1 | Sam68 (KHDRBS1) | -0.125
COCCOC(=O)N1C(=O)[C@@]2(c3ccccc31)[C@H](C(N)=O)[C@H]1C(=O)O[C@H](c3ccccc3)[C@H](c3ccccc3)N1[C@@H]2c1ccc(OCCO)cc1 | Sam68 (KHDRBS1) | 1.31
COc1ccccc1CN1C(=O)c2ccccc2[C@](Cc2ccccc2I)(C(=O)NCCCN(C)C)[C@@H]1c1ccc(CO)cc1 | Sam68 (KHDRBS1) | 1.3
CC(C)C[C@@H]1NC(=O)[C@H]2C[C@@H](C(=O)NCCCCCCNC(=O)CS)[C@@H](c3ccc(O)cc3)N2C1=O | Sam68 (KHDRBS1) | 1.3
C=CCOC(=O)[C@H]1[C@@H]2C(=O)O[C@@H](c3ccccc3)[C@@H](c3ccccc3)N2[C@@H](c2ccc(OCCOC(=O)[C@H]3C[C@H]4C(=O)NCC(=O)N4[C@H]3c3ccc(O)cc3)cc2)[C@]12C(=O)Nc1ccc(I)cc12 | Sam68 (KHDRBS1) | 0.503

###

- assay_protocol: PSAC antagonists in infected red cells, primary screen, cell-based, P. falciparum Indochina, OD700, 1 h (AID 1154)
- recorded_conditions: P. falciparum Indochina infected RBC osmotic lysis, called active from +8 up or from −8 down
Activity calls are given as the source filed them.
Classes used: 1 (yes) for active, 0 (no) for inactive

compound | class_label
CCc1cccc(NC(=O)O[C@H]2[C@H](OC(=O)Nc3ccc4c(c3)OCO4)[C@H](OC(=O)Nc3ccc4c(c3)OCO4)[C@@H](OC)O[C@@H]2CO)c1 | 1 (yes)
COC(=O)[C@@]1(Cc2ccc(OC)cc2)[C@H]2c3cc(C(=O)N4CCCC4)n(CCc4ccc(OC)c(Br)c4)c3C[C@H]2CN1C(=O)c1ccccc1 | 0 (no)
CCOC(=O)C1=CC[C@@H](c2ccccc2Cl)N(S(=O)(=O)c2ccc(C)cc2)[C@H]1c1cccc(OC)c1 | 0 (no)
CC1CC/C=C\[C@H]2OC34C=CCN(c5ccc(Cl)cc5)C(=O)[C@H]3N(CCCO)C(=O)[C@]4(C)C2C(=O)O1 (some centres undefined) | 0 (no)
CC(C)(C)OC(=O)CC[C@]1(C(=O)N2CCOCC2)N=C(c2ccc(OCCCO)cc2)O[C@H]1c1ccccc1CN=[N+]=[N-] | 1 (yes)
C=CCOC(=O)[C@H]1[C@@H]2C(=O)O[C@@H](c3ccccc3)[C@@H](c3ccccc3)N2[C@@H](c2ccc(OCCOC(=O)[C@H]3C[C@H]4C(=O)NCC(=O)N4[C@H]3c3ccc(O)cc3)cc2)[C@]12C(=O)Nc1ccc(I)cc12 | 0 (no)
CN1C(=O)C2C=CC(C(O)c3ccc(-c4ccccc4)s3)N(Nc3ccccc3)C2C1=O (centres undefined) | 0 (no)
CCCC[C@H]1OB(O)C[C@H]2C1=C(C)C[C@H]1C(=O)C=CC(=O)[C@H]12 | 0 (no)
C#CCN(C/C=C/c1ccccc1)[C@H](CO[Si](C)(C)C(C)(C)C)c1ccccc1 | 0 (no)
COC(=O)c1ccc([C@H](NC(=O)c2ccccc2)[C@]2(C)C[C@H]2C2CCCCC2)cc1 | 1 (yes)
COC(=O)Cn1c(C(=O)N(C)C)cc2c1C[C@H]1CN(C(=O)c3ccccc3)[C@@](Cc3ccc(OC)cc3)(C(=O)OC)[C@@H]21 | 0 (no)
CN1C(=O)[C@]2(CCC(=O)OC(C)(C)C)N=C(c3ccc(OCCCO)cc3)O[C@@H]2c2ccccc21 | 1 (yes)
C=CCC(OC(C)=O)[C@@H]1[C@@H](N(Cc2ccc(-c3cccc(C(F)(F)F)c3)o2)C(=O)Cc2ccc(F)cc2)c2cc(OCCCO)ccc2N1C(=O)c1ccc2ccccc2n1 (some centres undefined) | 0 (no)
C=CCC(OC(C)=O)[C@@H]1[C@@H](N(Cc2ccc(-c3ccccc3)cc2)C(=O)c2ccc(-c3ccccc3)cc2)c2cc(OCCCO)ccc2N1C(=O)c1ccc2ccccc2n1 (some centres undefined) | 0 (no)
